Measured values drawn from a melting point compilation (Tetko et al.; mined from patent text by program, amines drawn as free bases though some values may be those of a salt) for this set.

QUANTITY: melting point

>>> df
                                   compound       quantity         result
0                       OCc1cc(F)c(Cl)nc1Cl  melting point    65 to 67 °C
1  N#Cc1cnc2ccc(-n3cccc3C=O)cc2c1Nc1cccc(Br)c1  melting point    94 to 95 °C
2                 N#Cc1ccc2oc3cc(O)ccc3c2c1  melting point  270 to 271 °C
3  CC[C@]1(C(=O)NCC=Cc2ccccc2F)[C@H](C)C1(Cl)Cl (relative stereo)  melting point  103 to 105 °C
4  CC1(C)COS(=O)Oc2ccc(OS(C)(=O)=O)cc21 (centres undefined)  melting point    96 to 98 °C
5  O=c1[nH]c(-c2ccc(CCN3CCN(c4cccc(C(F)(F)F)c4)CC3)cc2)cs1  melting point  285 to 287 °C
6  COc1cc(OC)c(-c2cccs2)cc1C=CC(=O)c1ccc(S(=O)(=O)Nc2nnn[nH]2)cc1  melting point  185 to 186 °C
7  COc1ccc(CNC(=O)c2cc3c(=O)n(CCC(=O)c4ccccc4)c(=O)n(C)c3s2)cc1  melting point  208 to 211 °C
8  CC(C)(C)c1ccc(Cn2ccc3ccc(-c4ccc(OC(F)(F)F)cc4)cc32)cc1  melting point  100 to 102 °C
